Kindly state phosphorylation enrichment for each of the entries shown.
tested on: AncSZ; experiment: phosphorylation enrichment, bacterial display (enrichment ratio); higher = better substrate or ligand; peptides without Tyr show the background

VFSTDCFRVGG [NTRK2_Y706_Y706C_YF]    1.02
CENNRYGMGTS [PDHA1_Y227]    0.991
SGFESYGSSSF [RPA2_Y9_YF]    0.591
KGSEGYLAATF [NF1_Y2503_YF]    0.654

For each of the sequences below, state phosphorylation enrichment.
1. RDGDRYFKGIV [DCX_Y64_N60D]
2. EALDFYGELRT [PTEN_Y155_V158L]

1: 0.427; 2: 1.27

Batch request: phosphorylation enrichment for each of the following sequences.
1. LTRDIYKNDYY [ROS1_Y2110_A2106T]
2. QNKEDYAGLKE [GSTO1_Y139]
3. SHNKFYMLVAH [MFSD8_Y134_R139H_YF]

1. 2.28
2. 1.34
3. 1.42

###

tested on: c-Abl (mouse); assay: phosphorylation enrichment, bacterial display (enrichment ratio); higher = better substrate or ligand; peptides without Tyr show the background
experimental endpoint: phosphorylation enrichment
One number for each entry.

TAPFNYSFIFK [RAB14_Y8_YF]    0.657
SCRENYSDSEE [LEMD3_Y258]    0.792

Give measured phosphorylation enrichment for every item shown.
1. WKEIEYEVVRD [CPS1_Y634]
2. LDYNEYFRNLN [HPRT1_Y198_D201N]
3. HRGSLYLAIEY [TEK_Y899_Y897S]

1. 0.573
2. 0.849
3. 2.14

Need phosphorylation enrichment for each of these sequences.
1. TRSYDYMEGED [FGF7_Y58_G62E]
2. LVRPPYSYSAL [FOXI1_Y126]

[0.919, 0.641]

###

Assign phosphorylation enrichment to each entry below.
system: Fer (mouse); assay: phosphorylation enrichment, bacterial display (enrichment ratio); higher = better substrate or ligand; peptides without Tyr show the background
One number for each entry.

ADFPDCKFRPR [SOX11_Y116_Y116C_YF]    0.412
EEALHYLTRVE [SET_Y119]    0.492
LVQAEYWHDPI [PPT1_Y185]    0.644
FGGLRYGFGVL [KRTAP20-2_Y13_YF]    0.351
KKHIPYSEHKS [CSNK1G2_Y206_R207S]    0.72
GGYTCYCDGKK [PROS1_Y266]    0.484
VLAHKYHGGGG [HBB_Y146_A141V]    0.366
HMRLRYLAAEE [CEP120_Y884_Q879H]    0.75
RHIEKYVDQGK [IRAK3_Y61]    0.593
IKNSGYISRYL [EIF2AK3_Y585]    0.376

Give phosphorylation enrichment for all sequences that follow.
1. VRHRRYKHTHE [CTCF_Y343]
2. AFLLLCFNDTH [BMP15_Y235_Y235C]
3. PEQAAYQKVVA [HBB_Y131_V127E]
4. PVQAVYQKVVA [HBB_Y131_A130V]

1: 0.584; 2: 0.663; 3: 0.681; 4: 1.14

###

molecular target: c-Src SH2; assay: SH2 binding enrichment of the phosphorylated peptide, bacterial display (enrichment ratio); higher = better substrate or ligand; peptides without Tyr show the background
experimental endpoint: SH2 binding enrichment

The following sequences have reported results that may help.
LTERDYSFVTT [ACTG2_Y199_G198D]    0.678
KLQKFYRKNPD [EHHADH_Y683_Q685K_YF]    0.638
VGNAAYQAGSL [STK36_Y1181_P1185S]    0.356

Provide SH2 binding enrichment values for the following items, in order.
1. CTTIHSNFMCN [TP53_Y234_Y234S_YF]
2. DPGVSYRTREE [PDHA1_Y301]
3. GDGRFYMMEAI [PGM1_Y66_K68M]
4. TVLEPYADPFF [ZC3H18_Y367_YF]

1. 0.988
2. 0.732
3. 0.419
4. 1.32

###

system: AncSZ; assay: phosphorylation enrichment, bacterial display (enrichment ratio); higher = better substrate or ligand; peptides without Tyr show the background
experimental endpoint: phosphorylation enrichment
Give bare numbers.

Field: example entries. Status: answers known.
TKAEKYVNKPK [PLCG1_Y991_A995P]    0.72
ETLLYYGYRRS [POR_Y564_C566Y]    1.21

Go through the list and state phosphorylation enrichment for each entry.
1. PFGQWYESHFA [RPS8_Y113_R110G_YF]
2. IKSSIYDNRNE [ARAP2_Y380_K384N]
3. KDFTKYVAYIE [KDM4B_Y31_N29T]
4. EEESCYILHSS [PATJ_Y783]

[1.3, 0.505, 0.864, 1.63]

// for each sequence below, give its phosphorylation enrichment
1. REVVNYVQKRS [RMI1_Y450_N455S]
2. PLDGEYLTLQI [TP53_Y327_F328L]
3. QGIYGYHHHMQ [UFSP2_Y287_Y290H]
4. RAILNYIASKF [GSTA3_Y74_YF]
5. TEVRRYVLPLN [RPE65_Y368_P363T]

1: 0.981; 2: 2.75; 3: 0.932; 4: 1.84; 5: 0.649

Please state phosphorylation enrichment for every sequence in the list that follows.
1. TRSYKCLLLSM [NF1_Y491_Y491C]
2. FRQLPYCPSVE [CTNND2_Y508_Q507P_YF]
3. ALEKTYNTYRS [B4GALNT2_Y538]
4. IEELTYVIKQD [STX5_Y137_I138V]
5. LSRDVYEEDSF [RET_Y900_YF]
6. VSSPKYGSDDE [TMCC2_Y473]

[0.979, 1.25, 0.568, 1.23, 1.77, 0.968]

For each listed entry, give its phosphorylation enrichment.
1. QRCFVYFFSFL [PTEN_Y176_R173C_YF]
2. QRIHNYYEHRY [HCN4_Y554_D553N]
3. AATTAYSKPKR [MAP3K7_Y405]
4. DRLAVYIDRVR [LMNA_Y45]
5. VGSEDYGWDLT [SPTAN1_Y1792_R1794W]

[1.48, 1.36, 0.404, 1.24, 1.2]

###

biological target: c-Src SH2; assay: SH2 binding enrichment of the phosphorylated peptide, bacterial display (enrichment ratio); higher = better substrate or ligand; peptides without Tyr show the background;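 further: peptide library displayed on the E. coli surface as eCPX fusions, selected cells deep-sequenced, score is each peptide's frequency after selection divided by its frequency in the input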
Think of 0.5 as a floor: if SH2 binding enrichment stands on it or above, it is yes; beneath it, no.

TDGIAYEFRVT    no
FLAVGYHMPHI [IDS_Y225_K227M]    yes
QITQVYGFYHE [PPP2CA_Y127_D131H]    yes
GMAHNYRNRSQ [AASS_Y188_S191R]    no
ADLTEYLSTHF [UQCRC1_Y219_YF]    no
KNAEKYAEEDW [HSPA9_Y568_R573W]    yes
LTAEVYFPSIK [C5orf64_Y60]    no
SNKLTYGTVVF [ACOX1_Y275_M278V]    yes
MPLTEYLKQIK [CNGB3_Y200_R203Q]    no
EFLRNYFTDKA [DSG2_Y775]    no

Please tell me: is the sequence REGAKYVSHSA [ASS1_Y113_G117S] at or over 0.5 in terms of SH2 binding enrichment?
no

Can AEYGLYAAMVR [VSX2_Y222_G223A] be said to have SH2 binding enrichment at or above 0.5?
no

Entry TNYRLYLRSLE [MTM1_Y71] : is its SH2 binding enrichment no less than 0.5?
yes

API: above_or_equal(metric=SH2 binding enrichment, cutoff=0.5) for item AAVPAYDKIQV [STXBP2_Y401_R405Q]
yes

###

biological target: Jak2 (UniProt O60674); assay: phosphorylation enrichment, bacterial display (enrichment ratio); higher = better substrate or ligand; peptides without Tyr show the background
Sequence (O60674 whole entry, looked up): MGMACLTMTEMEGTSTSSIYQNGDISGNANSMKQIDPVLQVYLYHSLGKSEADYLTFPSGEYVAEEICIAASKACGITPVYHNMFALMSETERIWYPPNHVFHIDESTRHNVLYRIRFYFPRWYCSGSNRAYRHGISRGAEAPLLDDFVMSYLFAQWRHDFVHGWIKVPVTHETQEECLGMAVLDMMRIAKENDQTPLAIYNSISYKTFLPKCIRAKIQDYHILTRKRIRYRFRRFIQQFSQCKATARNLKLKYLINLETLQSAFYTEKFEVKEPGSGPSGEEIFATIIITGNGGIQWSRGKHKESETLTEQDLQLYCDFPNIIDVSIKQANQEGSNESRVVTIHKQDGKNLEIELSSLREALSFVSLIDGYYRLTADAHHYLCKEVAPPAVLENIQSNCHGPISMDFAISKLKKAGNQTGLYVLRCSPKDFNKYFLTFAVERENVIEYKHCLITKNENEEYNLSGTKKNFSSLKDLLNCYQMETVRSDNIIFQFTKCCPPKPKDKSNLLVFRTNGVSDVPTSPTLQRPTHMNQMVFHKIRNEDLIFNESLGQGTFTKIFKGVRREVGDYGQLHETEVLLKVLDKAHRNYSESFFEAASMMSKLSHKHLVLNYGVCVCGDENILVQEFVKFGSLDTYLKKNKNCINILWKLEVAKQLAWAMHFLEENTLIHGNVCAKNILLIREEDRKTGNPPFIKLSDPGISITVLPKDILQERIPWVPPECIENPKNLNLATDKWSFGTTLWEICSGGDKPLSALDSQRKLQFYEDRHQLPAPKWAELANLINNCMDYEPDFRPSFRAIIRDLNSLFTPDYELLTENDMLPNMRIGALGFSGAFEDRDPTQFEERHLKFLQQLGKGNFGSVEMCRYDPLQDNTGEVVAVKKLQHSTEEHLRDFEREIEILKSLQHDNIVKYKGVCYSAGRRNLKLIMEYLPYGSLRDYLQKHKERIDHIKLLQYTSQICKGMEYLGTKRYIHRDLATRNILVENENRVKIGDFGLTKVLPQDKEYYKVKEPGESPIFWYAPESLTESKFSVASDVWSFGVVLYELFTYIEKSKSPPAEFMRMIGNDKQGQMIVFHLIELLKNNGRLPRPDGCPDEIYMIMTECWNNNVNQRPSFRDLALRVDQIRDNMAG
Outcome label depends on phosphorylation enrichment relative to 0.8: at/above gives condition met, below gives condition not met.

# count of solved cases: 8
GDRPVYSEDEQ [CHST6_Y362_Y358D]    condition met
GGYTCYCDGKK [PROS1_Y266]    condition met
PSELFYSKISP [SMG1_Y2254_G2258S_YF]    condition met
SVVVPYEPSEV [TP53_Y220_P223S]    condition met
RHAASYSSDSE [REPS1_Y116]    condition met
GMTLSYLFWEP [NDUFS8_Y74_R77W]    condition met
NKPTVYGVSPN [ABL1_Y226]    condition not met
TFVVLYDAELT [ERCC4_Y581_R576T_YF]    condition met

Consider the additional sequence presented here.
Threshold query (phosphorylation enrichment >= 0.8) on IGSHAYGDQFR [IDH1_Y135_R132S_YF]
condition not met
